assay: GLP-compliant 28-day inhalation toxicity study in rats; type: in vivo, rat; details: in vivo, inhaled or intranasal; rat, inhalation 100 min per day for 28 days; read-out: No Observed Adverse Effect Level (NOAEL)
Non-standard residues stand in square brackets, D forms with d. Residues, ends and D or L forms follow the SMILES beside them. Gly(octyl) = CCCCCCCC[C@H](N)C(=O)O
measured_parameter: NOAEL at 28 days (mg/kg/day)
A number alone suffices; assume mg/kg/day.

Please report NOAEL at 28 days for the following compound: CCCCCCCC[C@@H]1NC(=O)[C@@H]2CCCN2C(=O)[C@H]2CCCN2C(=O)[C@H](Cc2ccc(O)cc2)NC(=O)[C@H](CCCCN)NC(=O)[C@H](CCC(N)=O)NC(=O)[C@@H]2CCCN2C(=O)[C@@H]2CCCN2C(=O)[C@H]([C@@H](C)CC)NC(=O)[C@H](CO)NC(=O)[C@H](C)NC(=O)[C@H]([C@@H](C)O)NC(=O)[C@H](CCC(=O)O)NC1=O [active compound] (cyclo([Gly(octyl)]ETASIPPQKY[dP]P))
119
